assay-system: SMN (aa 80–170) (Homo sapiens, UniProt Q16637)
Construct: SMN (aa 80–170); His tag (pET28-MHL) (N); made in house; host or cells: Escherichia coli BL21 (DE3)
Sequence (Q16637 80-170): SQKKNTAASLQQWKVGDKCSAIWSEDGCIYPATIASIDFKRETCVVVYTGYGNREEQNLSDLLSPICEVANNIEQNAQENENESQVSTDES
test-details: Fluorescence polarization binding assay, SMN Tudor domain
cond: fluorescence polarization, fluorescein-labeled peptide; 20 mM Tris pH 7.5, 50 mM NaCl, 1 mM DTT, 0.01% Triton X-100; 25°C; average of three independent measurements; NB = no detectable binding
reported-property: Kd

1. ARTKQTARK(me)1/2/3STGGKA [Histone H3K9me1/2/3, histone H3 peptides mono-, di- or trimethylated at K9, reported in one line] : > 500 µM

Note: attention shifts to another entry.
Prompt: Given the entry ARTK (me)1/2/3 QTARKST [Histone H3K4me1/2/3, histone H3 peptides mono-, di- or trimethylated at K4, reported in one line] , what Kd was observed with SMN (aa 80–170) (Homo sapiens, UniProt Q16637)?
Completion: > 500 µM
